Origin of values: patent US9624216B2

Target: IDH1-R132H recombinant protein (Homo sapiens, UniProt O75874, R132H)
Sequence (O75874 whole entry R132H): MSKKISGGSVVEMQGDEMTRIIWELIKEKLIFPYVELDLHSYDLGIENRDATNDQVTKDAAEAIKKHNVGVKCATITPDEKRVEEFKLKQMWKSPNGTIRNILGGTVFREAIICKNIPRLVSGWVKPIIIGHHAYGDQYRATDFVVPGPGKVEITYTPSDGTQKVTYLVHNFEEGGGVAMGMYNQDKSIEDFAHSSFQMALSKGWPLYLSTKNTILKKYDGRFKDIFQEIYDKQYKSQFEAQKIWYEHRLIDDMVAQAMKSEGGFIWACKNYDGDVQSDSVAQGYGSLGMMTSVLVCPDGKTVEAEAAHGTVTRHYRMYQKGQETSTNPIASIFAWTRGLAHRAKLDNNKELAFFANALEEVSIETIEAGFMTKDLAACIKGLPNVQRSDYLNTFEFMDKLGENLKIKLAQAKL
Assay: IDH1-R132H enzymatic assay (NADPH consumption, diaphorase/resazurin readout)
Settings: 30 nM IDH1-R132H, inhibition of NADPH consumption; read-out: Enzyme IDH1 R132H IC50
Protocol: IDH1-R132H and IDH1-R132C Enzymatic Assay Assays were performed in a 384-well black plate. […] The plate was maintained at 25° C. for 15 minutes and then read on a plate reader with excitation and emission wavelengths at 535 nm and 590 nm, respectively. The IC50 of a given compound was calculated by fitting the dose response curve of inhibition of NADPH consumption at a given concentration with the four parameter logistic equation.
pIC50: −log10 of the molar value.
This listing pairs compounds with measured pIC50.

Consider the reported pIC50 for these compounds:
compound: COc1cc2[nH]c(=O)c(C(C)Nc3ncc(C#N)s3)cc2cc1Cl (stereo not drawn) [Compound I-2]
pIC50: > 7.00

compound: COc1ccc2[nH]c(=O)c(CNc3nc4ccccc4s3)cc2c1 [Compound I-15]
pIC50: < 5.00

compound: Cc1nc(N[C@@H](C)c2cc3cc(Cl)ccc3[nH]c2=O)sc1C(N)=O [Compound I-11]
pIC50: > 7.00

compound: Cc1nc(N[C@@H](C)c2cc3cc(Cl)ccc3[nH]c2=O)sc1C#N [Compound I-7]
pIC50: > 7.00

compound: O=c1[nH]c2ccc(Cl)cc2cc1CNc1nc(-c2ccccn2)cs1 [Compound I-13]
pIC50: 5.00 to 6.00

compound: C[C@H](Nc1ncc(C(N)=O)s1)c1cc2cc(Cl)ccc2[nH]c1=O [Compound I-10]
pIC50: 6.00 to 7.00

Look up pIC50 for this compound: C[C@H](Nc1ncc(C#N)s1)c1cc2cc(Cl)c(OCc3ccccn3)cc2[nH]c1=O [Compound I-4]
> 7.00

Do the same for CC(=O)Nc1cnc(N[C@@H](C)c2cc3cc(Cl)ccc3[nH]c2=O)s1 [Compound I-8] please
5.00 to 6.00

Do the same for CCOC(=O)c1sc(N[C@@H](C)c2cc3cc(Cl)ccc3[nH]c2=O)nc1C [Compound I-9] please
5.00 to 6.00
